Tested on: Klebsiella pneumoniae: Ciprofloxacin-resistant isolate, ESBL, clinical isolate (KP-3700)
Assay: MIC determination (CLSI), KP-3700
Format: cell-based
Overview of reported KP-3700 MIC across a group of molecules:
quantity measured: KP-3700 MIC

1) CC(CCc1ccc(-c2ccccc2O)nc1)(C(=O)NO)S(C)(=O)=O (centres unmarked)    32 µg/mL
2) CC(C)(O)c1ccc(-c2ccc(CCC(C)(C(=O)NO)S(C)(=O)=O)cc2)cc1 (centres unmarked)    32 µg/mL
3) CC(C)(O)CCc1ccc(-c2ccc(CCC(C)(C(=O)NO)S(C)(=O)=O)cc2)cc1 (centres unmarked)    8 µg/mL
4) CC(CCc1ccc(-c2ccc(CCCO)cc2)cc1)(C(=O)NO)S(C)(=O)=O (centres unmarked)    2 µg/mL
5) CC(=O)c1ccc(-c2ccc(CCC(C)(C(=O)NO)S(C)(=O)=O)cc2)cc1F (centres unmarked)    2 µg/mL
6) C[C@@](CCc1ccc(-c2ccc(C#N)cc2)cc1)(C(=O)NO)S(C)(=O)=O    1 µg/mL
7) COc1ccc(-c2ccc(CCC(C)(C(=O)NO)S(C)(=O)=O)cc2)c(OC)c1 (racemic)    2 µg/mL
